Biological target: SMYD2 (Homo sapiens, UniProt Q9NRG4)
Construct: Full length SMYD2 (NP 064582.2) was cloned; His6 (N, cleaved yes); FLAG (N); made in house; host or cells: Sf9 insect cells
Sequence (Q9NRG4 whole entry): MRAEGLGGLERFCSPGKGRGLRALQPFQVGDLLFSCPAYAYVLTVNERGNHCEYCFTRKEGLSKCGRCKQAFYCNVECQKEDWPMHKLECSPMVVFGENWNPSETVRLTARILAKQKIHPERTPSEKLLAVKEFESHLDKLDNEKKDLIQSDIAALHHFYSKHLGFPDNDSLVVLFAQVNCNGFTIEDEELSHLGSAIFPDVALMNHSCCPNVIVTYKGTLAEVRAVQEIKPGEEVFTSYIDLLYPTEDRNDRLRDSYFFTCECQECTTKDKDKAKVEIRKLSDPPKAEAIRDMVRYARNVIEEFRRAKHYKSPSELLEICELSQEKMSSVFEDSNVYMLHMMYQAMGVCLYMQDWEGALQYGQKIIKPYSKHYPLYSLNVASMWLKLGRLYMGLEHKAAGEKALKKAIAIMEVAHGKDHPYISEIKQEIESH
Test: SMYD2 Biochemical Assay (3H-SAM, biotinylated peptide substrate, Flashplate)
Conditions: IC50 values are an average of n = 1 to n = 50; read-out: SMYD2 Biochem IC50 (μM)*
Text: S-adenosylmethionine (SAM), S-adenosylhomocysteine (SAH), bicine, Tween20, dimethylsulfoxide (DMSO), bovine skin gelatin (BSG), and Tris(2-carboxyethyl)phosphine hydrochloride (TCEP) were purchased from Sigma-Aldrich at the highest level of purity possible. ^3H-SAM was purchase from American Radiolabeled Chemicals with a specific activity of 80 Ci/mmol. 384-well streptavidin Flashplates were purchased from PerkinElmer. […]
experimental_readout: IC50

>  <compound>
CC(C)N1C[C@H](NC(=O)c2cc(C3CC3)on2)C[C@H]1COCC#CC1CCCCC1 (stereo in doubt)

>  <experimental_readout>
IC50

>  <observed_value>
> 50 µM

$$$$
>  <compound>
C[C@H]1CN(Cc2ccc(N(C)C)cc2)C[C@H]1NC(=O)c1cc(C2CC2)on1 (racemic)

>  <experimental_readout>
IC50

>  <observed_value>
4.08 µM

$$$$
>  <compound>
C[C@@H]1CN(c2ccnc(N)n2)C[C@H]1NC(=O)c1cc(C2CC2)on1 (racemic)

>  <experimental_readout>
IC50

>  <observed_value>
> 50 µM

$$$$
>  <compound>
C[C@@H]1CN(CC2CCNC2)C[C@H]1NC(=O)c1cc(C2CC2)on1 (mixture of isomers)

>  <experimental_readout>
IC50

>  <observed_value>
> 50 µM

$$$$
>  <compound>
C[C@@H]1CN(CC(=O)N2CCN(C)CC2)C[C@H]1NC(=O)c1cc(C2CC2)on1 (racemic)

>  <experimental_readout>
IC50

>  <observed_value>
> 50 µM

$$$$
>  <compound>
C[C@H]1CN(Cc2cc3ccccc3nc2Cl)C[C@H]1NC(=O)c1cc(C2CC2)on1 (racemic)

>  <experimental_readout>
IC50

>  <observed_value>
4.17 µM

$$$$
>  <compound>
C[C@@H]1CN(Cc2ccc(N3CCCC3)cc2)C[C@H]1NC(=O)c1cc(C2CC2)on1 (racemic)

>  <experimental_readout>
IC50

>  <observed_value>
29.5 µM

$$$$
>  <compound>
C[C@H]1CN(Cc2ccc3nonc3c2)C[C@H]1NC(=O)c1cc(C2CC2)on1 (racemic)

>  <experimental_readout>
IC50

>  <observed_value>
41.6 µM

$$$$
>  <compound>
C[C@H]1CN(c2cnccn2)C[C@H]1NC(=O)c1cc(C2CC2)on1 (racemic)

>  <experimental_readout>
IC50

>  <observed_value>
> 50 µM

$$$$
>  <compound>
CC(C)N1C[C@H](C)[C@H](NC(=O)c2cc(C(C)(C)C)on2)C1 (racemic)

>  <experimental_readout>
IC50

>  <observed_value>
> 50 µM

$$$$
>  <compound>
COC(=O)CN1C[C@H](C)[C@H](NC(=O)c2cc(C3CC3)on2)C1 (racemic)

>  <experimental_readout>
IC50

>  <observed_value>
> 50 µM

$$$$
>  <compound>
CCC(c1ccccc1)N1C[C@H](C)[C@H](NC(=O)c2cc(C3CC3)on2)C1 (relative stereo)

>  <experimental_readout>
IC50

>  <observed_value>
1.15 µM

$$$$
>  <compound>
C[C@@H]1CN(Cc2ccnn2C)C[C@H]1NC(=O)c1cc(C2CC2)on1 (racemic)

>  <experimental_readout>
IC50

>  <observed_value>
> 50 µM

$$$$
>  <compound>
CN1C[C@@H](C(F)(F)F)[C@H](NC(=O)c2cc(C3CC3)on2)C1 (racemic)

>  <experimental_readout>
IC50

>  <observed_value>
> 50 µM

$$$$
>  <compound>
C[C@@H]1CN(c2ncccn2)C[C@H]1NC(=O)c1cc(C2CC2)on1 (racemic)

>  <experimental_readout>
IC50

>  <observed_value>
> 50 µM

$$$$
>  <compound>
CC(C)N1C[C@@H](NC(=O)c2cc(C3CC3)on2)C[C@H]1COCC#Cc1ccccc1 (stereo in doubt)

>  <experimental_readout>
IC50

>  <observed_value>
> 50 µM

$$$$
>  <compound>
CC(C)N1C[C@H](C)[C@H](NC(=O)c2cc(C#N)on2)C1 (racemic)

>  <experimental_readout>
IC50

>  <observed_value>
22.8 µM

$$$$
>  <compound>
CC(C)[C@H]1CN(C(C)C)C[C@H]1NC(=O)c1cc(C2CC2)on1 (racemic)

>  <experimental_readout>
IC50

>  <observed_value>
> 50 µM

$$$$
>  <compound>
C[C@H]1CN(c2ccccn2)C[C@H]1NC(=O)c1cc(C2CC2)on1 (racemic)

>  <experimental_readout>
IC50

>  <observed_value>
> 50 µM

$$$$
>  <compound>
COc1ncc(CN2C[C@@H](C)[C@H](NC(=O)c3cc(C4CC4)on3)C2)cc1Br (racemic)

>  <experimental_readout>
IC50

>  <observed_value>
> 50 µM

$$$$
>  <compound>
C[C@@H]1CN(c2cccc(Cl)c2)C[C@H]1NC(=O)c1cc(C2CC2)on1 (racemic)

>  <experimental_readout>
IC50

>  <observed_value>
> 50 µM

$$$$
>  <compound>
CC(C)N1C[C@@H](C(F)(F)F)[C@H](NC(=O)c2cc(C3CC3)on2)C1 (racemic)

>  <experimental_readout>
IC50

>  <observed_value>
> 50 µM

$$$$
>  <compound>
CC(C)N1C[C@H](NC(=O)c2cc(C3CC3)on2)[C@@H](C2CC2)C1 (racemic)

>  <experimental_readout>
IC50

>  <observed_value>
48.1 µM

$$$$
>  <compound>
C[C@H]1CN(c2ccnc(N)n2)C[C@H]1NC(=O)c1cc(C2CC2)on1 (racemic)

>  <experimental_readout>
IC50

>  <observed_value>
> 50 µM

$$$$
>  <compound>
C[C@H]1CN(CC2CCN(C)CC2)C[C@H]1NC(=O)c1cc(C2CC2)on1 (racemic)

>  <experimental_readout>
IC50

>  <observed_value>
> 50 µM

$$$$
